- system name: GABARAP, O95166
- Sequence (O95166 whole entry, the tested form may be a part): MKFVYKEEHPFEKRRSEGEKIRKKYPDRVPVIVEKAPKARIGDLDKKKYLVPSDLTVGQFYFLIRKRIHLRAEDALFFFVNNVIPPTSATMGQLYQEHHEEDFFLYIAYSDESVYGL
- assay notes: median log2 fold change of GCK-ALFA target abundance (FLAG IP / Myc IP barcode read proportion) (log2 ratio); each designed protein is fused to an ALFA-tag nanobody in HEK293 cells to bring the named protein to FLAG-tagged glucokinase (GCK); Myc marks an untargeted standard; higher = target protein stabilised (more abundant)
- stated conditions: target protein: 3xFLAG-MCP-GCK-ALFA reporter; HEK293 landing pad (RPLP)
Whole data set: some 4,500 sequences, median “median log2 fold change of GCK-ALFA target abundance (FLAG IP / Myc IP barcode read proportion)” near 0.078, cut for the lowest 2% near -0.6. The entries come from a sample that favours the lowest values as a whole.
measure: median log2 fold change

median log2 fold change recorded for this binder, GBRAP_125_3047 (protein) SLEELVEALRLLAKKLGYSEEEVEEIARLARKYGVKGTLIAILLAEGEEELAELAAKLTDEQVAEVLLELKAWLEENPDASKEEVLKKLRELLEKALAKT , is -0.274

Kindly note the recorded median log2 fold change for GBRAP_52_6102 (protein) MREELRKKVREILELVREGKLEEARKKIKELVESLNDEEIRLVADEIAELAREAAPEDLDAVWTLAEMFAEELEKAGKPEVLVDYLLASTAAALYEREQA , which is 0.197

GET /value?item= GBRAP_117_2592 (protein) SATREAARAKIRATVAEVEALFKELAGLSPEEQAEALAAMRERVKAVLREVIEELGEEEAEELLDEALLDTDAETYFFLESVREDTLEELEEEEEEEERE &field=median log2 fold change returns 0.191

Quick note, median log2 fold change for GBRAP_160_4322 (protein) KEELEELEKRIKEIAEEAKKMIKGQSAEEKITIVKVALGDIILEVESNPAVSDELEDKVAEIADAAEAYLDAHPDLSEEEVIALLEEAVKKILELIKEEK landed at 0.161

Just so you know, measured median log2 fold change for GBRAP_84_7006 (protein) EREEEIVKLTKEILEKGSIELKALLLTYLILKNENKAATLALNDLLKEDPEAAVEALDRATEAYEEGKEEEVEKELKEKAKKEGKEVAELVEKLIKLLEE came out at -0.666

Sure, the documented median log2 fold change for GBRAP_52_6358 (protein) ALEEALALLREALAAVAAGDEEEARAILEELVATYSEETILAAFERLAEEVADKDVATAEALLETALLLADVMDEAGRDPAVADDIEAIAARTYMAVKAK is -0.632

For GBRAP_125_3132 (protein) HMEEILENLAIVAKALGLSDDDVEEAVKIAEKHGVKGTMYAILAALGYDEVADLVEKITEEEAIEVVKEVAEKIKKDPSLTPEEVVELIKKLLKEKIAAK the binder record lists median log2 fold change as -0.0148

Value of median log2 fold change reported for the binder GBRAP_95_7064 (protein) EEDLEIAEDLIDTAEDLVEIGLYEQAARAAKAAVEELKEIGYTGELALRAAEVLVKVAEATGNEEAAELAKEVLEEIRKAGGDEKKIEELEKRLEKALKK is 0.373

Value of median log2 fold change reported for the binder GBRAP_125_3134 (protein) GMAEDLEDLAIVARALGFSDDDVAEAVAIAAKHGFKGTLYAIMAALGYDEVADLVEKITEEEAIEVIREVAAEIRADPSLTPEEVVELIKKRLEEVIAKK is -0.575

The binder GBRAP_160_4711 (protein) MEVKEKLKKYVEEEFEEAKELIKGESIEQRAIIVEGTIGEIIMELFEEEEASDELIDEVDKIGDELVETILANPDLTEEEIEELIEKAEEEIKKAIDKYV showed median log2 fold change equal to -0.152

// field: median log2 fold change; key: GBRAP_42_5723 (protein) MYLVNLEVVVATREELERAIAIWRERNARYRKEKGIIIRLTIAAPEEAAELAAEAEAESAELAKEADKELDWVVVAASADEVGDAIDIAVDLALEERKEE ; value = 0.104

The binder listed as GBRAP_52_5963 (protein) MEARMEALLDELLALRRAGDEAGAEALAREIAETLDDEELRLLGDVLVARIRASDLETAELLLDLAIMLADVLEELGRDPRLASDLLGRAAAAAYALEQA shows median log2 fold change equal to -0.635

median log2 fold change recorded for this binder, GBRAP_48_5830 (protein) MKIDLEKLEALVKETVEEMKELYEEAKKEGLSDEDILKMIKAELGDLALELEEEGYTKAADYLLERENRDELAKKLLELFKEGKYEEAYEYLLKKLKEAE , is 0.224

Per the records, this binder ( GBRAP_14_3854 (protein) MEKLIAAVKKTAEAAIEFAKELLPEHAEEVGKKIKELAEKIIEKIKKENLNKEEVAELIRKMAEELGKFIKEKGYASDEEIAAFKAFIENEALLELEKVE ) has median log2 fold change equal to 0.381
